assay: Cytotoxicity (CC50) by CCK-8 assay in PAM cells; assay type: cell-based, Porcine; conditions: pig, 72 h exposure
OBSERVABLE: CC50 at 72 h (µM)
Write the answer as a number in µM, unit excluded.

Quick one: CC50 at 72 h for COc1ccc(-c2coc3cc(O)ccc3c2=O)cc1 ?
52

---

Recorded measurements of pEC50, one per entry
tested on: PRRSV VR-2332 strain; experiment: Antiviral EC50 against PRRSV VR-2332 in PAM cells (PRRSV genomic expression); assay type: cell-based; settings: Porcine reproductive and respiratory syndrome virus
pEC50: −log10 of the molar value.

{"columns": ["MOLECULE", "TARGET OF ASSAY", "pEC50"],
 "data": [
  ["NC(=O)c1ncn([C@@H]2O[C@H](CO)[C@@H](O)[C@H]2O)c1O [MZR, reference compound]", "PRRSV VR-2332 strain", "~5.08"]
]}

Consider now this further molecule.
Please provide the recorded pEC50 for COc1ccc(-c2coc3cc(O)ccc3c2=O)cc1 , tested on PRRSV VR-2332 strain.
~5.06

---

test system: PRRSV VR-2332 strain; assay: Antiviral EC50 against PRRSV VR-2332 in Marc-145 cells (PRRSV genomic expression); assay type: cell-based; conditions: Porcine reproductive and respiratory syndrome virus, MARC145, VR-2332 strain, Figure 3, unit inferred
Recorded measurements of EC50, one per entry
Write the answer as a number in µM, unit excluded.

{"columns": ["COMPOUND", "OBSERVABLE", "RESULT NUMBER"],
 "data": [
  ["COc1ccc(-c2coc3cc(O)ccc3c2=O)cc1", "EC50", 16.9]
]}

Please provide the recorded EC50 for NC(=O)c1ncn([C@@H]2O[C@H](CO)[C@@H](O)[C@H]2O)c1O [MZR, reference compound] , tested on PRRSV VR-2332 strain.
22.3
